# TARGET OF ASSAY: T1, AFP158/HLA-A*02:01 complex (human)
# T1 construct: flowed over the chip in SPR; also called AFP158 pro
# TEST NAME: SPR, scFv captured, pMHC in flow;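 further: complex injected at several concentrations over crude scFv, association then running-buffer dissociation, KD estimated from kinetic on- and off-rate constants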
pKd: −log10 of the molar value.
Assign class by pKd: not lower than 7 means T; lower than 7 means F.

# BINDER, ASSIGNED LABEL
measured = [
    ("HG56E (scFv, AS170036 VL1VH1 scFv mutein) scFv: QSALTQPRSVSGSPGQSVTISCAGTSSDVGSENYVSWYQQHPGKAPKLMIYQVNKRASGVPDRFSGSKSGNTASLTISGLQAEDEADYYCASYRSSDHNIVFGGGTKLTVLGGGGSGGGGSGGGGSEVQLVESGGGLVQPGGSLRLSCAASGFTFSSYAMSWVRQAPGKGLEWVSTINSGTESPYYADSVKGRFTISRDNSKNTLYLQMNSLRAEDTAVYYCAKNFFDGSWFLGPPAMDYWGQGTLVTVSSHHHHHH", "F"),
    ("HG108L (scFv, AS170036 VL1VH1 scFv mutein) scFv: QSALTQPRSVSGSPGQSVTISCAGTSSDVGSENYVSWYQQHPGKAPKLMIYQVNKRASGVPDRFSGSKSGNTASLTISGLQAEDEADYYCASYRSSDHNIVFGGGTKLTVLGGGGSGGGGSGGGGSEVQLVESGGGLVQPGGSLRLSCAASGFTFSSYAMSWVRQAPGKGLEWVSTINSGTGSPYYADSVKGRFTISRDNSKNTLYLQMNSLRAEDTAVYYCAKNFFDGSWFLLPPAMDYWGQGTLVTVSSHHHHHH", "F"),
    ("HG108M (scFv, AS170036 VL1VH1 scFv mutein; also called AS170036 VL1VH1-VHG108M) scFv: QSALTQPRSVSGSPGQSVTISCAGTSSDVGSENYVSWYQQHPGKAPKLMIYQVNKRASGVPDRFSGSKSGNTASLTISGLQAEDEADYYCASYRSSDHNIVFGGGTKLTVLGGGGSGGGGSGGGGSEVQLVESGGGLVQPGGSLRLSCAASGFTFSSYAMSWVRQAPGKGLEWVSTINSGTGSPYYADSVKGRFTISRDNSKNTLYLQMNSLRAEDTAVYYCAKNFFDGSWFLMPPAMDYWGQGTLVTVSSHHHHHH", "T"),
    ("HG108A (scFv, AS170036 VL1VH1 scFv mutein; also called AS170036 VL1VH1-VHG108A) scFv: QSALTQPRSVSGSPGQSVTISCAGTSSDVGSENYVSWYQQHPGKAPKLMIYQVNKRASGVPDRFSGSKSGNTASLTISGLQAEDEADYYCASYRSSDHNIVFGGGTKLTVLGGGGSGGGGSGGGGSEVQLVESGGGLVQPGGSLRLSCAASGFTFSSYAMSWVRQAPGKGLEWVSTINSGTGSPYYADSVKGRFTISRDNSKNTLYLQMNSLRAEDTAVYYCAKNFFDGSWFLAPPAMDYWGQGTLVTVSSHHHHHH", "T"),
    ("HG108T (scFv, AS170036 VL1VH1 scFv mutein) scFv: QSALTQPRSVSGSPGQSVTISCAGTSSDVGSENYVSWYQQHPGKAPKLMIYQVNKRASGVPDRFSGSKSGNTASLTISGLQAEDEADYYCASYRSSDHNIVFGGGTKLTVLGGGGSGGGGSGGGGSEVQLVESGGGLVQPGGSLRLSCAASGFTFSSYAMSWVRQAPGKGLEWVSTINSGTGSPYYADSVKGRFTISRDNSKNTLYLQMNSLRAEDTAVYYCAKNFFDGSWFLTPPAMDYWGQGTLVTVSSHHHHHH", "F"),
    ("HP110D (scFv, AS170036 VL1VH1 scFv mutein) scFv: QSALTQPRSVSGSPGQSVTISCAGTSSDVGSENYVSWYQQHPGKAPKLMIYQVNKRASGVPDRFSGSKSGNTASLTISGLQAEDEADYYCASYRSSDHNIVFGGGTKLTVLGGGGSGGGGSGGGGSEVQLVESGGGLVQPGGSLRLSCAASGFTFSSYAMSWVRQAPGKGLEWVSTINSGTGSPYYADSVKGRFTISRDNSKNTLYLQMNSLRAEDTAVYYCAKNFFDGSWFLGPDAMDYWGQGTLVTVSSHHHHHH", "F"),
    ("HS57D (scFv, AS170036 VL1VH1 scFv mutein) scFv: QSALTQPRSVSGSPGQSVTISCAGTSSDVGSENYVSWYQQHPGKAPKLMIYQVNKRASGVPDRFSGSKSGNTASLTISGLQAEDEADYYCASYRSSDHNIVFGGGTKLTVLGGGGSGGGGSGGGGSEVQLVESGGGLVQPGGSLRLSCAASGFTFSSYAMSWVRQAPGKGLEWVSTINSGTGDPYYADSVKGRFTISRDNSKNTLYLQMNSLRAEDTAVYYCAKNFFDGSWFLGPPAMDYWGQGTLVTVSSHHHHHH", "F"),
]

Where these numbers come from: patent US20240279318A1
